The origin of these recorded values is patent US10421784B2.

# Tested on: Hela
# measurement conditions: read-out: IC50, block of proliferation, siRNA delivered with VEPEP-9b and VEPEP-9e
recorded endpoint: pIC50
pIC50 field: float, defined as -log10 of concentration (mol/L).

Data request: Report pIC50 for siRNA: siRNA targeting Cyclin B1; sense 5′GGCGAAGAUCAACAUGGCATT3′, antisense 5′UGCCAUGUUGAUCUUCGCCTT3′ (chemistry not given here) please.
Data returned: 8.51

* * *

# assay: Fluorescence titration, VEPEP-9/SHM binding
# measurement conditions: cargo porphyrin
The substances listed here are annotated with their Kd.
Supply the numeric figure in nM, leaving out any unit text.

substance | Kd / nM
X1WWGSWATPRRRWWR [VEPEP-9e, X1 is beta-A or S] | 200
X1WWRWWASWARSWWR [VEPEP-9d, X1 is beta-A or S] | 250

Data request: Requested read-out: Kd. Entry: X1WWRWWAPWARSWWR [VEPEP-9f, X1 is beta-A or S]
Data returned: 110

* * *

# Test system: MCF7
# measurement conditions: read-out: IC50, block of proliferation, siRNA delivered with VEPEP-9b and VEPEP-9e
recorded endpoint: pIC50
The quantity pIC50 is defined as the negative base-10 logarithm of the molar concentration.

Data request: # input substance: siRNA: siRNA targeting Cyclin B1; sense 5′GGCGAAGAUCAACAUGGCATT3′, antisense 5′UGCCAUGUUGAUCUUCGCCTT3′ (chemistry not given here) ; wanted: its pIC50
Data returned: 8.80

* * *

Measured pKd of individual entries
# assay: Fluorescence titration, VEPEP-9/SHM binding
# measurement conditions: cargo Doxorubicin
Here pKd is given on a logarithmic scale as minus log10 of the concentration in mol/L.

substance | pKd
X1WWGSWATPRRRWWR [VEPEP-9e, X1 is beta-A or S] | 7.30

Now turn to the next substance.
Data request: If you can, please state the reported pKd value of X1WWRWWASWARSWWR [VEPEP-9d, X1 is beta-A or S] .
Data returned: 7.05

* * *

# target entity: siRNA
# assay: Fluorescence titration, VEPEP-9/cargo binding
# measurement conditions: cargo siRNA
pKd: −log10 of the molar value.
recorded endpoint: pKd

# example entries with known answers
substance | data value
X1WWGSWATPRRRWWR [VEPEP-9e, X1 is beta-A or S] | 7.30 to 8.30
X1WWRWWASWARSWWR [VEPEP-9d, X1 is beta-A or S] | < 6.70

Now look at this entry.
Data request: Quick one: pKd for X1WWRWWAPWARSWWR [VEPEP-9f, X1 is beta-A or S] ?
Data returned: < 6.70

* * *

# assay: Fluorescence titration, VEPEP-9/SHM binding
# measurement conditions: cargo AZT
Listed below: Kd values for each entry.
Answer with a number only, understood to be in nM.

substance | Kd / nM
X1WWRWWASWARSWWR [VEPEP-9d, X1 is beta-A or S] | 20

Now, please, on to the next substance.
Data request: Kd lookup needed for X1WWGSWATPRRRWWR [VEPEP-9e, X1 is beta-A or S] , thanks.
Data returned: 90

* * *

# Test system: Hela
# measurement conditions: read-out: IC50, accumulation of cells with a 4 N content (G2 arrest), Cyclin B1 siRNA delivered with VEPEP-9
recorded endpoint: IC50 (nM)
Unit nM implied. Number only.

Data request: Provide the documented IC50 with Hela as the system for siRNA: siRNA targeting Cyclin B1; sense 5′GGCGAAGAUCAACAUGGCATT3′, antisense 5′UGCCAUGUUGAUCUUCGCCTT3′ (chemistry not given here)
Data returned: 2.4

* * *

# System: HEK-2
# assay: G2 arrest (accumulation of cells with 4 N content)
# Format: cell-based
# measurement conditions: Cyclin B1 siRNA delivered with VEPEP-9
recorded endpoint: IC50 (nM)
Value expressed in nM; do not type the unit.

Data request: Query (substance): siRNA: siRNA targeting Cyclin B1; sense 5′GGCGAAGAUCAACAUGGCATT3′, antisense 5′UGCCAUGUUGAUCUUCGCCTT3′ (chemistry not given here) ; field requested: IC50
Data returned: 1.2

* * *

# Tested on: MCF7
# measurement conditions: read-out: IC50, accumulation of cells with a 4 N content (G2 arrest), Cyclin B1 siRNA delivered with VEPEP-9
recorded endpoint: pIC50
Expect pIC50 as a plain number equal to -log10 of the molar concentration.

Data request: For the substance siRNA: siRNA targeting Cyclin B1; sense 5′GGCGAAGAUCAACAUGGCATT3′, antisense 5′UGCCAUGUUGAUCUUCGCCTT3′ (chemistry not given here) , what pIC50 is on record?
Data returned: 8.72
